# System: C. elegans
# experiment: Three day C. elegans well assay
# Assay type: in vivo
# conditionSummary: Caenorhabditis elegans, 48 h; L1 larvae, two days of exposure; read-out: EC50 L1 2D
Exercise: for every item that follows, state its recorded EC50.
Give a bare numeral; the unit µg/mL is implied.

Give the measured EC50 of Cc1cc(F)ccc1-c1noc(-c2cccs2)n1 [compound 5845] .
1.6

Which EC50 value is on record for Cc1cc(Cl)ccc1-c1noc(-c2ccco2)n1 [compound 5823] ?
0.4

Request the reported EC50 associated with Fc1ccc(-c2noc(-c3cccs3)n2)c(F)c1 [compound 5847]
0.4

// EC50 lookup, key: Fc1cc(Br)ccc1-c1noc(-c2ccco2)n1 [compound 5850]
0.4

GET /values?readout=EC50&item= Fc1cc(Cl)ccc1-c1noc(-c2cccs2)n1 [compound 5860]
0.4

----------
Would you mind telling me the reported EC50 of each entry?
# System: C. elegans
# experiment: Three day C. elegans well assay
# Format: in vivo
# conditionSummary: Caenorhabditis elegans, 24 h; L1 larvae, one day of exposure; read-out: EC50 L1 1D
# Procedure: Various compounds were tested for nematicidal activity against C. elegans using contact assays in wells. The assays were performed as described below. The test compounds were solubilized in DMSO at 10 mg/ml to create 100× stock solutions. A dilution series was created by diluting the stock solution with DMSO. For each well assay 4 ul of the appropriate dilution is added to a well of a test plate. […] Worms are examined and scored at 4 hrs, 24 hrs, 48 hrs and 72 hours. […]
Report the value in µg/mL with no unit label.

Give the reported EC50 for Cc1cc(F)ccc1-c1noc(-c2ccco2)n1 (system: C. elegans).
1.6

Param readout = EC50; param system = C. elegans; param query = Clc1cc(-c2noc(-c3cccs3)n2)ccc1Br ; response: value
0.4

# get_value(readout= EC50, system= C. elegans) for Cc1cc(Cl)ccc1-c1nsc(-c2ccco2)n1
1.6

Quick check: EC50 on C. elegans, item Fc1cc(Br)ccc1-c1noc(-c2ccco2)n1 ?
1.6

Report EC50 for Fc1cc(Cl)ccc1-c1noc(-c2ccco2)n1 tested on C. elegans.
0.4

Could you share what EC50 was measured for Brc1ccccc1-c1cnc(-c2cccs2)o1 , tested on C. elegans?
6.3

Query the reported EC50 for C. elegans; item: Cc1cc(Cl)ccc1-c1noc(-c2cccs2)n1
1.6

Test system C. elegans; read-out EC50; what value for Cc1cc(Cl)ccc1-c1noc(-c2ccco2)n1 ?
0.4

C. elegans / EC50 / Fc1cc(Cl)ccc1-c1noc(-c2cccs2)n1 : value?
1.6

Requested read-out EC50, target or system C. elegans, entry Cc1cc(Br)ccc1-c1noc(-c2ccco2)n1
0.4

State its EC50 on C. elegans: Clc1cc(-c2noc(-c3ccco3)n2)ccc1Br
0.4

State its EC50 on C. elegans: Fc1cc(Br)ccc1-c1noc(-c2cccs2)n1
1.6

Write down the reported EC50 of Cc1cc(Br)ccc1-c1noc(-c2cccs2)n1 , test system: C. elegans.
1.6

Report EC50 for Clc1ccccc1-c1cnc(-c2ccco2)o1 tested on C. elegans.
1.6

Lab request: please report EC50 under test system C. elegans for Fc1ccc(-c2noc(-c3ccco3)n2)c(F)c1
6.3

Please provide the recorded EC50 for Clc1ccc(-c2nsc(-c3cccs3)n2)cc1 , tested on C. elegans.
0.4

Give recorded EC50 with C. elegans for the following compound: Clc1ccccc1-c1cnc(-c2cccs2)o1
6.3

Query EC50 on C. elegans for Cc1cc(Br)ccc1-c1nsc(-c2ccco2)n1
0.4

What value of EC50 on C. elegans does Clc1ccc(-c2nsc(-c3ccco3)n2)cc1 have?
0.4

Find the measured EC50: item Fc1cc(Cl)ccc1-c1cnc(-c2cccs2)o1 , target or system C. elegans.
0.4
